Biological target: Alcohol dehydrogenase (Equus caballus) (UniProt P00327+P00328)
Assay: The compound was tested for the ability to inactivate horse liver alcohol dehydrogenase in the presence of 0.2 mM NAD+K
measurement-type: Rate constant (M⁻¹ s⁻¹)
A number alone suffices; assume M⁻¹ s⁻¹.

Examples from the recorded data:
[[record]]
smiles_notation = "CS(=O)(=O)OCC(=O)Nc1ccc(CCCC(N)=O)cc1"
meas_value = 0.217

[[record]]
smiles_notation = "NC(=O)CCCc1ccc(NC(=O)CCl)cc1"
meas_value = 0.0267

[[record]]
smiles_notation = "NC(=O)CCCc1ccc(NC(=O)CBr)cc1"
meas_value = 2.67


Continue with the next molecule.
Looking up `O=C(O)CCCc1ccc(NC(=O)CBr)cc1` , I found its Rate constant recorded as 0.25
